Assayed Target: HCV-NS5b (Hepatitis C virus genotype 1b, UniProt Q9WMX2)
Construct: The cloned fragment was missing the C terminus 21 amino acid residues; (His)6 (C); made in house; host or cells: XL-1 cells (E. coli)
Assay Info: HCV-NS5b Enzyme Assay
Assay type: biochemical
Measurement Conditions: 1 μM test compound; incorporation of [3H]-UTP, 37° C., 2 hours
# % inhibition @ 1 μM per entry

[
  {
    "Entry Smiles": "O=C(O)c1ccc2c(C3CCCCC3)c(-c3ccc4nc(-c5nccs5)ccc4c3)n(CC(=O)N3CCOCC3)c2c1",
    "% inhibition @ 1 μM / %": 98.4
  },
  {
    "Entry Smiles": "O=C(O)c1ccc2c(C3CCCCC3)c(-c3ccc4nc(-c5ccsc5)ccc4c3)n(CC(=O)N3CCOCC3)c2c1",
    "% inhibition @ 1 μM / %": 96.2
  },
  {
    "Entry Smiles": "O=C(O)c1ccc2c(C3CCCCC3)c(-c3ccc4nc(-c5ccc(Cl)s5)ccc4c3)n(CC(=O)N3CCOCC3)c2c1",
    "% inhibition @ 1 μM / %": 98.0
  },
  {
    "Entry Smiles": "Cc1nc(C)c(-c2ccc3cc(-c4c(C5CCCCC5)c5ccc(C(=O)O)cc5n4CC(=O)NCC(=O)O)ccc3n2)s1",
    "% inhibition @ 1 μM / %": 92.1
  },
  {
    "Entry Smiles": "O=C(O)c1ccc2c(C3CCCCC3)c(-c3ccc4nc(-c5cccs5)ccc4c3)n(CC(=O)N3CCOCC3)c2c1",
    "% inhibition @ 1 μM / %": 98.2
  },
  {
    "Entry Smiles": "O=C(O)c1ccc2c(C3CCCCC3)c(-c3ccc4nc(-c5ccccc5)ccc4c3)n(CC(=O)N3CCOCC3)c2c1",
    "% inhibition @ 1 μM / %": 96.4
  },
  {
    "Entry Smiles": "O=C(O)c1ccc2c(C3CCCCC3)c(-c3ccc4nc(-c5ccc(-n6ccnc6)cc5)ccc4c3)n(CC(=O)N3CCOCC3)c2c1",
    "% inhibition @ 1 μM / %": 98.5
  },
  {
    "Entry Smiles": "O=C(O)c1ccc2c(C3CCCCC3)c(-c3ccc4nc(-c5ccccn5)ccc4c3)n(CC(=O)N3CCOCC3)c2c1",
    "% inhibition @ 1 μM / %": 98.0
  },
  {
    "Entry Smiles": "O=C(O)c1ccc2c(C3CCCCC3)c(-c3ccc4nc(-c5cccnc5)ccc4c3)n(CC(=O)N3CCOCC3)c2c1",
    "% inhibition @ 1 μM / %": 94.5
  }
]

----------
Assayed Target: HCV-NS5b (Hepatitis C virus genotype 1b, UniProt Q9WMX2)
Construct: The cloned fragment was missing the C terminus 21 amino acid residues; (His)6 (C); made in house; host or cells: XL-1 cells (E. coli)
Assay Info: HCV-NS5b Enzyme Assay
Assay type: biochemical
Measurement Conditions: 1 μM test compound; incorporation of [3H]-UTP, 37° C., 2 hours

[
  {
    "Compound": "O=C(O)c1ccc2c(C3CCCCC3)c(-c3ccc4ncc(-c5ccccc5)cc4c3)n(CC(=O)N3CCOCC3)c2c1 [Compound 327]",
    "inhibition at 1 µM (%)": 96.3
  },
  {
    "Compound": "Cc1nc(C)c(-c2ccc3cc(-c4c(C5CCCCC5)c5ccc(C(=O)O)c(C)c5n4CC(=O)N4CCOCC4)ccc3n2)s1 [Compound 238]",
    "inhibition at 1 µM (%)": 85.6
  },
  {
    "Compound": "COc1ccc(-c2ccc3cc(-c4c(C5CCCCC5)c5ccc(C(=O)O)cc5n4CC(=O)N4CCOCC4)ccc3n2)c(F)c1 [Compound 257]",
    "inhibition at 1 µM (%)": 98.6
  },
  {
    "Compound": "COc1cccc(Cn2c(-c3ccc4nc(-c5sc(C)nc5C)ccc4c3)c(C3CCCCC3)c3ccc(C(=O)O)cc32)c1 [Compound 293]",
    "inhibition at 1 µM (%)": 69.2
  },
  {
    "Compound": "O=C(O)c1ccc2c(C3CCCCC3)c(-c3ccc4ncc(-c5ccccc5)nc4c3)n(CC(=O)N3CCOCC3)c2c1 [Compound 329]",
    "inhibition at 1 µM (%)": 99.8
  },
  {
    "Compound": "Cc1ccc(-c2ccc(-c3c(C4CCCCC4)c4ccc(C(=O)O)cc4n3CC(=O)N3CCOCC3)cc2)cc1 [Compound 300]",
    "inhibition at 1 µM (%)": 98.2
  },
  {
    "Compound": "Cc1cccc(-c2ccc3cc(-c4c(C5CCCCC5)c5ccc(C(=O)O)cc5n4CC(=O)N4CCOCC4)ccc3c2)c1 [Compound 321]",
    "inhibition at 1 µM (%)": 98.2
  },
  {
    "Compound": "COc1cc(OC)cc(-c2ccc3cc(-c4c(C5CCCCC5)c5ccc(C(=O)O)cc5n4CC(=O)N4CCOCC4)ccc3n2)c1 [Compound 251]",
    "inhibition at 1 µM (%)": 98.5
  },
  {
    "Compound": "COc1ccc(-c2ccc(Cl)cc2)c(-c2ccc3cc(-c4c(C5CCCCC5)c5ccc(C(=O)O)cc5n4CC(=O)N4CCOCC4)ccc3n2)c1 [Compound 203]",
    "inhibition at 1 µM (%)": 98.7
  },
  {
    "Compound": "Cc1nc(C)c(-c2ccc3cc(-c4c(C5CCCCC5)c5ccc(C(=O)O)cc5n4CC(=O)O)ccc3n2)s1 [Compound 211]",
    "inhibition at 1 µM (%)": 91
  },
  {
    "Compound": "COc1ccccc1-c1ccc2cc(-c3c(C4CCCCC4)c4ccc(C(=O)O)cc4n3CC(=O)N3CCOCC3)ccc2n1 [Compound 233]",
    "inhibition at 1 µM (%)": 95.7
  },
  {
    "Compound": "O=C(O)c1ccc2c(C3CCCCC3)c(-c3ccc(-c4ccccc4)cc3)n(CC(=O)N3CCOCC3)c2c1 [Compound 332]",
    "inhibition at 1 µM (%)": 100
  },
  {
    "Compound": "COc1ccncc1-c1ccc(-c2c(C3CCCCC3)c3ccc(C(=O)O)cc3n2CC(=O)O)cc1 [Compound 308]",
    "inhibition at 1 µM (%)": 97.5
  },
  {
    "Compound": "O=C(O)c1ccc2c(C3CCCCC3)c(-c3ccc4cc(-c5ccccc5F)ccc4c3)n(CC(=O)N3CCOCC3)c2c1 [Compound 322]",
    "inhibition at 1 µM (%)": 95.1
  }
]
